B1: library; a variant is named by its letters at N, in order (parent)
chain: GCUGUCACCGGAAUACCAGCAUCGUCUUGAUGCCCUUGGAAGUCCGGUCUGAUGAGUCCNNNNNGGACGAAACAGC

variants of: B1; test: normalized RNA/DNA level with ligand (relative to sTRSVctl = 100) (log10 (% of sTRSVctl)); higher = less ribozyme self-cleavage, higher mRNA level; details: ligand concentration (+) RNA-Seq: 5 mM, HEK293T, reporter: mCherry (pCS4076), ligand present: yes
normalized RNA/DNA level with ligand (log10) overview
reported_metric: normalized RNA/DNA level with ligand (log10)

>  <input_sequence>
GCUGUCACCGGAAUACCAGCAUCGUCUUGAUGCCCUUGGAAGUCCGGUCUGAUGAGUCCUGAUAGGACGAAACAGC [UGAUA]

>  <measured>
1.96

$$$$
>  <input_sequence>
GCUGUCACCGGAAUACCAGCAUCGUCUUGAUGCCCUUGGAAGUCCGGUCUGAUGAGUCCAAUGUGGACGAAACAGC [AAUGU]

>  <measured>
1.99

$$$$
>  <input_sequence>
GCUGUCACCGGAAUACCAGCAUCGUCUUGAUGCCCUUGGAAGUCCGGUCUGAUGAGUCCUAAAAGGACGAAACAGC [UAAAA]

>  <measured>
1.99

$$$$
>  <input_sequence>
GCUGUCACCGGAAUACCAGCAUCGUCUUGAUGCCCUUGGAAGUCCGGUCUGAUGAGUCCACGCGGGACGAAACAGC [ACGCG]

>  <measured>
2.01

$$$$
>  <input_sequence>
GCUGUCACCGGAAUACCAGCAUCGUCUUGAUGCCCUUGGAAGUCCGGUCUGAUGAGUCCCCCAAGGACGAAACAGC [CCCAA]

>  <measured>
2.01

$$$$
>  <input_sequence>
GCUGUCACCGGAAUACCAGCAUCGUCUUGAUGCCCUUGGAAGUCCGGUCUGAUGAGUCCAUGGUGGACGAAACAGC [AUGGU]

>  <measured>
2.02

$$$$
>  <input_sequence>
GCUGUCACCGGAAUACCAGCAUCGUCUUGAUGCCCUUGGAAGUCCGGUCUGAUGAGUCCAGUGGGGACGAAACAGC [AGUGG]

>  <measured>
1.98

$$$$
>  <input_sequence>
GCUGUCACCGGAAUACCAGCAUCGUCUUGAUGCCCUUGGAAGUCCGGUCUGAUGAGUCCGCCCUGGACGAAACAGC [GCCCU]

>  <measured>
1.97

$$$$
>  <input_sequence>
GCUGUCACCGGAAUACCAGCAUCGUCUUGAUGCCCUUGGAAGUCCGGUCUGAUGAGUCCUGGUUGGACGAAACAGC [UGGUU]

>  <measured>
2.04

$$$$
>  <input_sequence>
GCUGUCACCGGAAUACCAGCAUCGUCUUGAUGCCCUUGGAAGUCCGGUCUGAUGAGUCCAGCGUGGACGAAACAGC [AGCGU]

>  <measured>
2.01

$$$$
>  <input_sequence>
GCUGUCACCGGAAUACCAGCAUCGUCUUGAUGCCCUUGGAAGUCCGGUCUGAUGAGUCCUCCCGGGACGAAACAGC [UCCCG]

>  <measured>
2.03

$$$$
>  <input_sequence>
GCUGUCACCGGAAUACCAGCAUCGUCUUGAUGCCCUUGGAAGUCCGGUCUGAUGAGUCCAACCAGGACGAAACAGC [AACCA]

>  <measured>
2

$$$$
>  <input_sequence>
GCUGUCACCGGAAUACCAGCAUCGUCUUGAUGCCCUUGGAAGUCCGGUCUGAUGAGUCCAGCUCGGACGAAACAGC [AGCUC]

>  <measured>
2.04

$$$$
>  <input_sequence>
GCUGUCACCGGAAUACCAGCAUCGUCUUGAUGCCCUUGGAAGUCCGGUCUGAUGAGUCCAAACCGGACGAAACAGC [AAACC]

>  <measured>
1.96

$$$$

Origin of measurements: the supplement of paper PMC6757056
